EXPERIMENTAL_SYSTEM: PI3Kγ (Homo sapiens, UniProt P48736)
Construct: purchased Invitrogen PR8641C
Sequence (P48736 whole entry): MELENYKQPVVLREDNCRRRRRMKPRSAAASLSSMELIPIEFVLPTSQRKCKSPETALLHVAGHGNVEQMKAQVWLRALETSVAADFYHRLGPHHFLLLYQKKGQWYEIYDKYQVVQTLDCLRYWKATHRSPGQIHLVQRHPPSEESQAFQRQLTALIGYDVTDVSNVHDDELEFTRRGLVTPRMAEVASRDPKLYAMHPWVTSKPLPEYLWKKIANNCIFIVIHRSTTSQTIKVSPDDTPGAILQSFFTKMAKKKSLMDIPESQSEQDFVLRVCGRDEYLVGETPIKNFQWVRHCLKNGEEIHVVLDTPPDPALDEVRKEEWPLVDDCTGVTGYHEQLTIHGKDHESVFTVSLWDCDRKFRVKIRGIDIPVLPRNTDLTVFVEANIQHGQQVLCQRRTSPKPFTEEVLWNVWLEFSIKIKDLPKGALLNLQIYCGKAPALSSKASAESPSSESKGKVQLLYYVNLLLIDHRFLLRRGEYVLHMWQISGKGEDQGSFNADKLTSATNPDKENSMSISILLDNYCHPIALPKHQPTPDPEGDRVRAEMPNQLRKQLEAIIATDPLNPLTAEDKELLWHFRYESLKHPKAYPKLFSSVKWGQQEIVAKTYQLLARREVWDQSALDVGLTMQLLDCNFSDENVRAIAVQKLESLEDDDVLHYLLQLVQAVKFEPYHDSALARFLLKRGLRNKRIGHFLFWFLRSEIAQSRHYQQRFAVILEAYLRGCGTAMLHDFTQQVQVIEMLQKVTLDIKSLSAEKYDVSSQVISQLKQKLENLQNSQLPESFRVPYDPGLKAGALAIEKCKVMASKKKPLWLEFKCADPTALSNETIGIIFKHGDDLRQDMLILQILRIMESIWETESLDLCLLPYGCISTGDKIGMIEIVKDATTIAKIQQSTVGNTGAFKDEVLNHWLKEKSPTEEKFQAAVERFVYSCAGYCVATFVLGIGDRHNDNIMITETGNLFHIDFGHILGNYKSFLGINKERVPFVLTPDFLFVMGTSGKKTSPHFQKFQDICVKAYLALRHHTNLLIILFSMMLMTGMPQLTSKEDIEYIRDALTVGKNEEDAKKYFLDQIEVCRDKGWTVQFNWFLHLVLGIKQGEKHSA
ASSAY: In vitro kinase activity (LabChip EZ Reader mobility shift), PI3Kγ
Format: biochemical
CONDITION_SUMMARY: kinase subtype PI3Kγ (p110γ)
OBSERVATION_TYPE: IC50 (nM)

CC(Nc1ncnc(N)c1C#N)c1c(-c2ccccc2)[nH]c2ccccc2c1=O (centres unmarked) [Example 10] : 441
CC(Nc1ncnc(N)c1C#N)c1c(-c2cccc(F)c2)n(C)c2ccccc2c1=O (centres unmarked) [Example 26] : 814
CC(Nc1ncnc(N)c1C#N)c1c(-c2ccccc2)[nH]c2c(Cl)cccc2c1=O (centres unmarked) [Example 9] : 66
CC(Nc1nc(N)nc(N)c1C#N)c1c(-c2ccccc2)[nH]c2ccccc2c1=O (centres unmarked) [Example 22] : 60
CCC(Nc1nc(N)nc(N)c1C#N)c1c(-c2ccccc2)oc2ccccc2c1=O (centres unmarked) [Example 32] : 673
N#Cc1c(N)ncnc1NCc1c(-c2ccccc2)[nH]c2c(Cl)cccc2c1=O [Example 14] : 905
CC(Nc1nc(N)nc(N)c1C#N)c1c(-c2ccccc2)oc2c(Cl)cccc2c1=O (centres unmarked) [Example 6] : 84

====

EXPERIMENTAL_SYSTEM: PI3Kδ (Homo sapiens, UniProt O00329)
Construct: purchased Millipore 14-604-K
Sequence (O00329 whole entry): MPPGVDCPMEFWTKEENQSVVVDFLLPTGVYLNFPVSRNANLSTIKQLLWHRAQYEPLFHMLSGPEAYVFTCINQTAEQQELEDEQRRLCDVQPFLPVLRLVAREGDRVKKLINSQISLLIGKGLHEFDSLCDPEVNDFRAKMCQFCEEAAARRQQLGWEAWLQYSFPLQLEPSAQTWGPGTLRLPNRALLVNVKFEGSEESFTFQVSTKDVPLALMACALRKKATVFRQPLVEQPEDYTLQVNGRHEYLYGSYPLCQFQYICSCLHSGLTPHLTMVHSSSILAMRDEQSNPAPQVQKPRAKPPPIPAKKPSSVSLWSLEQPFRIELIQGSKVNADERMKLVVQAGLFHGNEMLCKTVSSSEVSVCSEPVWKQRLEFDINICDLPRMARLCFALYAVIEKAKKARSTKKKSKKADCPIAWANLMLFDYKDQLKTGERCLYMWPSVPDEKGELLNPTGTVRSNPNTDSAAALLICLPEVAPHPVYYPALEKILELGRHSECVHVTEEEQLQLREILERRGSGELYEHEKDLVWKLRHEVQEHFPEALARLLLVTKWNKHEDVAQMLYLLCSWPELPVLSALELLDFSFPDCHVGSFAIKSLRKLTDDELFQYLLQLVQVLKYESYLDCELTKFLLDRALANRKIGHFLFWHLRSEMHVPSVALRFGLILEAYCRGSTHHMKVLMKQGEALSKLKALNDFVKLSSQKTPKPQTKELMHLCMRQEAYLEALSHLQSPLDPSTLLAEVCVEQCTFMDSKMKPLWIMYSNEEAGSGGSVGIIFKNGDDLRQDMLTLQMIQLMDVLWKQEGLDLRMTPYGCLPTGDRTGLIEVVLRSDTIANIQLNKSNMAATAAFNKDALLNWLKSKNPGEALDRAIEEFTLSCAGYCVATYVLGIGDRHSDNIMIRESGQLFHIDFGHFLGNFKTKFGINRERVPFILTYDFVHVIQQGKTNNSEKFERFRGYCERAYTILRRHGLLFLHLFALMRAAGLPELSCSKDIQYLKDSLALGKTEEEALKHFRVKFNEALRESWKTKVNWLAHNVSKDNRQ
Sequence (P27986 whole entry partner): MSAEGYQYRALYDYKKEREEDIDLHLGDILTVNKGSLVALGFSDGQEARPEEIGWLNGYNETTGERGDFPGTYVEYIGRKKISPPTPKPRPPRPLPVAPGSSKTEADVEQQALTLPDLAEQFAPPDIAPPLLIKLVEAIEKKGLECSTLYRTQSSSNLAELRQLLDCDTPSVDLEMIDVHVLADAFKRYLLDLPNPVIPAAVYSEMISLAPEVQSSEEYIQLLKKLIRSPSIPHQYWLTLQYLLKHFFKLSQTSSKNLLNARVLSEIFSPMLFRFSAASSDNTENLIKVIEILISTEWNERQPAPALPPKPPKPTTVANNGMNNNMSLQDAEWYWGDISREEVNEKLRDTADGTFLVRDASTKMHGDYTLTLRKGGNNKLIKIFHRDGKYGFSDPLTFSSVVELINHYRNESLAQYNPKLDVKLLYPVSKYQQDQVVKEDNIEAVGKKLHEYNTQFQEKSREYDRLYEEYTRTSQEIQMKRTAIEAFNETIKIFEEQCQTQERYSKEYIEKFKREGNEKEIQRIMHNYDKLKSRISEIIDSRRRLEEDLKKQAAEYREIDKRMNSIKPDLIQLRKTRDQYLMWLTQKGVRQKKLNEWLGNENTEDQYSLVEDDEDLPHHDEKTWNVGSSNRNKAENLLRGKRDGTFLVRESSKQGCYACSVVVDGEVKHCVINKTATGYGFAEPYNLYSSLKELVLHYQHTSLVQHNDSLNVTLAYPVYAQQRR
ASSAY: In vitro kinase activity (LabChip EZ Reader mobility shift), PI3Kδ
Format: biochemical
CONDITION_SUMMARY: kinase subtype PI3Kδ (p110δ/p85a)
Entries annotated with measured IC50
OBSERVATION_TYPE: IC50

CC(Nc1nc(N)nc(N)c1C#N)c1c(-c2ccccc2)oc2c(Cl)cccc2c1=O (stereo not shown) : 9.5 nM
CCC(Nc1ncnc(N)c1C#N)c1c(-c2ccccc2)[nH]c2ccccc2c1=O (stereo not shown) : 5.8 nM
N#Cc1c(N)nc(N)nc1NCc1c(-c2ccccc2)[nH]c2c(Cl)cccc2c1=O : 2 nM
CC(Nc1ncnc(N)c1C#N)c1c(-c2ccccc2)[nH]c2c(Cl)cccc2c1=O (stereo not shown) : 3.8 nM

====

EXPERIMENTAL_SYSTEM: PI3Kγ (Homo sapiens, UniProt P48736)
Construct: purchased Invitrogen PR8641C
ASSAY: In vitro kinase activity (LabChip EZ Reader mobility shift), PI3Kγ
Assay type: biochemical
CONDITION_SUMMARY: kinase subtype PI3Kγ (p110γ)
OBSERVATION_TYPE: IC50

CC(Nc1ncnc(N)c1C#N)c1c(-c2ccccc2)oc2ccccc2c1=O (stereo not drawn) : > 1000 nM
CCC(Nc1ncnc(N)c1C#N)c1c(-c2ccccc2)[nH]c2ccccc2c1=O (stereo not drawn) : > 1000 nM
CC(Nc1nc(N)nc(N)c1C#N)c1c(-c2ccccc2)oc2ccccc2c1=O (stereo not drawn) : 83 nM

====

Entries annotated with measured log10 IC50
EXPERIMENTAL_SYSTEM: PI3Kα (Homo sapiens)
Construct: purchased Invitrogen PV4788
ASSAY: In vitro kinase activity (LabChip EZ Reader mobility shift), PI3Kα
Assay type: biochemical
CONDITION_SUMMARY: kinase subtype PI3Kα (p110α/p85a)
OBSERVATION_TYPE: log10 IC50 (log10 of the value in nM)

N#Cc1c(N)nc(N)nc1NCc1c(-c2ccccc2)[nH]c2c(Cl)cccc2c1=O : 2.53
CC(Nc1nc(N)nc(N)c1C#N)c1c(-c2ccccc2)n(C)c2c(Cl)cccc2c1=O (centres unmarked) : 1.59
CC(Nc1nc(N)nc(N)c1C#N)c1c(-c2ccccc2)n(C)c2ccccc2c1=O (centres unmarked) : 2.10
CC(Nc1ncnc(N)c1C#N)c1c(-c2ccccc2)[nH]c2c(Cl)cccc2c1=O (centres unmarked) : 2.34
CC(Nc1ncnc(N)c1C#N)c1c(-c2ccccc2)[nH]c2ccccc2c1=O (centres unmarked) : 3.03

====

EXPERIMENTAL_SYSTEM: PI3Kα (Homo sapiens)
Construct: purchased Invitrogen PV4788
ASSAY: In vitro kinase activity (LabChip EZ Reader mobility shift), PI3Kα
Assay type: biochemical
CONDITION_SUMMARY: kinase subtype PI3Kα (p110α/p85a)
Entries annotated with measured IC50
OBSERVATION_TYPE: IC50

CC(Nc1nc(N)nc(N)c1C#N)c1c(-c2ccccc2)[nH]c2c(Cl)cccc2c1=O (centres unmarked) : 114 nM
CC(Nc1nc(N)nc(N)c1C#N)c1c(-c2ccccc2)[nH]c2ccccc2c1=O (centres unmarked) : 675 nM
N#Cc1c(N)ncnc1NCc1c(-c2ccccc2)[nH]c2c(Cl)cccc2c1=O : > 1000 nM
CCC(Nc1ncnc(N)c1C#N)c1c(-c2ccccc2)[nH]c2ccccc2c1=O (centres unmarked) : > 1000 nM
CC(Nc1nc(N)nc(N)c1C#N)c1c(-c2ccccc2)oc2ccccc2c1=O (centres unmarked) : > 1000 nM
CC(Nc1nc(N)nc(N)c1C#N)c1c(-c2ccccc2)oc2c(Cl)cccc2c1=O (centres unmarked) : > 1000 nM
CC(Nc1ncnc(N)c1C#N)c1c(-c2ccccc2)oc2c(Cl)cccc2c1=O (centres unmarked) : > 1000 nM
CC(Nc1ncnc(N)c1C#N)c1c(-c2ccccc2)oc2c(F)cccc2c1=O (centres unmarked) : > 1000 nM

====

Entries annotated with measured IC50
EXPERIMENTAL_SYSTEM: PI3Kα (Homo sapiens, UniProt P42336)
Construct: purchased Invitrogen PV4788
Sequence (P42336 whole entry): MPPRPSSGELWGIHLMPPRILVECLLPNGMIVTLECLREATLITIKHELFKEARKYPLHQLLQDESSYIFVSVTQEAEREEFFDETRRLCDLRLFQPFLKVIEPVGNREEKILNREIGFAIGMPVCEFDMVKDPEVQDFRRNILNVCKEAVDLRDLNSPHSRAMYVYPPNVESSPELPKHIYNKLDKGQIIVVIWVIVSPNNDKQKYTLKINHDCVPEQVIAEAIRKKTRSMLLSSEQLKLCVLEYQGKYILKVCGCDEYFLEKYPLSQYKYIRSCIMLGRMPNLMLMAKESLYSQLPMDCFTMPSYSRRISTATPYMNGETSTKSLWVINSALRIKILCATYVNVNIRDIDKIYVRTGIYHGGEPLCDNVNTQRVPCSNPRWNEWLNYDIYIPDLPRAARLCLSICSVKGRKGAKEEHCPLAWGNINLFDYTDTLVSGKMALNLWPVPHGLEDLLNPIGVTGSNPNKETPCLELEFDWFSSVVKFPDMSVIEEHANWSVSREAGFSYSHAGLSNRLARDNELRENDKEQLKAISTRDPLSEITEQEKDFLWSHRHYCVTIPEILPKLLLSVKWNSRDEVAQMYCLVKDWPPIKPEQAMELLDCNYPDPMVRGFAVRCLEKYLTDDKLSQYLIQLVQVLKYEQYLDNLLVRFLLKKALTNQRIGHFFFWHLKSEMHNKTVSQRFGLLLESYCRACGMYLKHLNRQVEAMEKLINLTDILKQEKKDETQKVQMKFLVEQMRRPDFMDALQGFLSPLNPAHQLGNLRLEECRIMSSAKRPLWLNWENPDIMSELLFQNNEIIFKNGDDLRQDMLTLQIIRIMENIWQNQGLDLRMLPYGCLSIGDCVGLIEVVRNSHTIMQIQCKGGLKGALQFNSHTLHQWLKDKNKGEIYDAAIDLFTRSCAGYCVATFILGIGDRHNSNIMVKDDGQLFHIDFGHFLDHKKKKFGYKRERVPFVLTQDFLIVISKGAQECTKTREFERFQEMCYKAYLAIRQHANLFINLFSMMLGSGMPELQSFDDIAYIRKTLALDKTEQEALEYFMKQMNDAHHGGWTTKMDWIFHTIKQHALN
Sequence (P27986 whole entry partner): as the sequence (P27986 whole entry partner) above
ASSAY: In vitro kinase activity (LabChip EZ Reader mobility shift), PI3Kα
Type: biochemical
CONDITION_SUMMARY: kinase subtype PI3Kα (p110α/p85a)
OBSERVATION_TYPE: IC50

CC(Nc1nc(N)nc(N)c1C#N)c1c(-c2ccccc2)oc2c(F)cccc2c1=O (stereo not drawn) : > 1000 nM
N#Cc1c(N)ncnc1NCc1c(-c2ccccc2)[nH]c2ccccc2c1=O : > 1000 nM
CC(Nc1nc(N)nc(N)c1C#N)c1c(-c2cccc(F)c2)oc2ccccc2c1=O (stereo not drawn) : > 1000 nM

====

EXPERIMENTAL_SYSTEM: PI3Kγ (Homo sapiens)
Construct: purchased Invitrogen PR8641C
ASSAY: In vitro kinase activity (LabChip EZ Reader mobility shift), PI3Kγ
Assay type: biochemical
CONDITION_SUMMARY: kinase subtype PI3Kγ (p110γ)
OBSERVATION_TYPE: IC50 (nM)

CC(Nc1nc(N)nc(N)c1C#N)c1c(-c2ccccc2)[nH]c2c(Cl)cccc2c1=O (centres unmarked) : 5.7
CC(Nc1nc(N)nc(N)c1C#N)c1c(-c2cccc(F)c2)oc2ccccc2c1=O (centres unmarked) : 155
N#Cc1c(N)nc(N)nc1NCc1c(-c2ccccc2)[nH]c2c(Cl)cccc2c1=O : 61
CC(Nc1nc(N)nc(N)c1C#N)c1c(-c2ccccc2)n(C)c2ccccc2c1=O (centres unmarked) : 21
CC(Nc1nc(N)nc(N)c1C#N)c1c(-c2ccccc2)n(C)c2c(Cl)cccc2c1=O (centres unmarked) : 11
CC(Nc1nc(N)nc(N)c1C#N)c1c(-c2ccccc2)oc2c(F)cccc2c1=O (centres unmarked) : 134

====

EXPERIMENTAL_SYSTEM: PI3Kδ (Homo sapiens, UniProt O00329)
Construct: purchased Millipore 14-604-K
ASSAY: In vitro kinase activity (LabChip EZ Reader mobility shift), PI3Kδ
Type: biochemical
CONDITION_SUMMARY: kinase subtype PI3Kδ (p110δ/p85a)
Entries annotated with measured log10(IC50)
OBSERVATION_TYPE: log10(IC50) (log10 of the value in nM)

CC(Nc1nc(N)nc(N)c1C#N)c1c(-c2ccccc2)n(C)c2ccccc2c1=O (centres unmarked) : 0.26
CC(Nc1nc(N)nc(N)c1C#N)c1c(-c2ccccc2)n(C)c2c(Cl)cccc2c1=O (centres unmarked) : 0.15
CC(Nc1ncnc(N)c1C#N)c1c(-c2ccccc2)oc2ccccc2c1=O (centres unmarked) : 1.23
N#Cc1c(N)ncnc1NCc1c(-c2ccccc2)[nH]c2ccccc2c1=O : 1.32
CCC(Nc1nc(N)nc(N)c1C#N)c1c(-c2ccccc2)oc2ccccc2c1=O (centres unmarked) : 0.68
CC(Nc1ncnc(N)c1C#N)c1c(-c2ccccc2)oc2c(Cl)cccc2c1=O (centres unmarked) : 1.04
N#Cc1c(N)nc(N)nc1NCc1c(-c2ccccc2)oc2ccccc2c1=O : 1.13
CC(Nc1nc(N)nc(N)c1C#N)c1c(-c2ccccc2)[nH]c2c(Cl)cccc2c1=O (centres unmarked) : 0.15
CC(Nc1nc(N)nc(N)c1C#N)c1c(-c2ccccc2)oc2ccccc2c1=O (centres unmarked) : 0.96
CC(Nc1nc(N)nc(N)c1C#N)c1c(-c2ccccc2)oc2c(F)cccc2c1=O (centres unmarked) : 0.82
CC(Nc1nc(N)nc(N)c1C#N)c1c(-c2ccccc2)[nH]c2ccccc2c1=O (centres unmarked) : 1.04
CC(Nc1ncnc(N)c1C#N)c1c(-c2ccccc2)oc2c(F)cccc2c1=O (centres unmarked) : 0.70
CC(Nc1ncnc(N)c1C#N)c1c(-c2cccc(F)c2)n(C)c2ccccc2c1=O (centres unmarked) : 0.36
CC(Nc1nc(N)nc(N)c1C#N)c1c(-c2cccc(F)c2)oc2ccccc2c1=O (centres unmarked) : 0.56
CC(Nc1ncnc(N)c1C#N)c1c(-c2cc(F)cc(F)c2)c(=O)c2cc(F)ccc2n1C (centres unmarked) [Comparative Example 1, reference compound] : 1.30
N#Cc1c(N)ncnc1NCc1c(-c2ccccc2)[nH]c2c(Cl)cccc2c1=O : 0.51
CC(Nc1ncnc(N)c1C#N)c1c(-c2ccccc2)[nH]c2ccccc2c1=O (centres unmarked) : 0.64
